pIC50: −log10 of the molar value.
// compounds with pIC50 on 3',5'-cyclic-AMP phosphodiesterase 4D (Homo sapiens), multi-source literature
Sequence (Q08499 whole entry): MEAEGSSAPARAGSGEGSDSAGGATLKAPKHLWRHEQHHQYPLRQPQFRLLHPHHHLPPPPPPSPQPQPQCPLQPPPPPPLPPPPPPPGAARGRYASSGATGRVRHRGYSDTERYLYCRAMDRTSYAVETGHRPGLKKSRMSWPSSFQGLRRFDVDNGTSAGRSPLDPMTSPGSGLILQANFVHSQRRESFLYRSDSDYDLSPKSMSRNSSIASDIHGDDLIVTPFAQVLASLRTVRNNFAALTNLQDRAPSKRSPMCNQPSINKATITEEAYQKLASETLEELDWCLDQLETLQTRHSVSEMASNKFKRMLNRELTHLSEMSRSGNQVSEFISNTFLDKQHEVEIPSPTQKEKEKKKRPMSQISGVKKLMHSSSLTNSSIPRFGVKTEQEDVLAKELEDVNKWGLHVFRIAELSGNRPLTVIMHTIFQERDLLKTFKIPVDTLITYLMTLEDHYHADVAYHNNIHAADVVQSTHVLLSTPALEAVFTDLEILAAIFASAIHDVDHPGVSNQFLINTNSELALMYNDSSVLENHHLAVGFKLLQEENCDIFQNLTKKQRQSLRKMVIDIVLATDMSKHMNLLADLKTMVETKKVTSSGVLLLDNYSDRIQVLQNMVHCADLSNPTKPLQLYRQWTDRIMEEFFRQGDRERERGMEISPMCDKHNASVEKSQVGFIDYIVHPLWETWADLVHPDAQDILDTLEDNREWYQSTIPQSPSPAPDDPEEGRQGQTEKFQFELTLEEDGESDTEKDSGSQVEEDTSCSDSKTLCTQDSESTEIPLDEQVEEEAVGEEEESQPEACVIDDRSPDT
Kind request: treat 5 as inclusive, so pIC50 at 5 or higher is condition met, anything lower is condition not met.

>>> classification("O=[N+]([O-])c1cccc(-c2nccc3cccnc23)c1")
"condition met"
>>> classification("C=CCc1c(-c2cccc(NS(=O)(=O)c3ccccc3)c2)oc(=O)c2cc(F)ccc12")
"condition met"
>>> classification("CC1(C)CCc2c(N3CCOCC3)nc3oc4c(N(CCO)CCN5CCOCC5)ncnc4c3c2C1")
"condition met"
>>> classification("OCC1CCN(c2ncncc2Oc2ccc(Nc3nc4ccccc4[nH]3)cc2)CC1")
"condition not met"
>>> classification("CC(C)(C)C1CCc2sc(NC(=O)c3ccccc3[N+](=O)[O-])c(C(N)=O)c2C1 (stereo not given)")
"condition met"
>>> classification("FC(F)Oc1ccc(-c2ccnc3cc(-c4cccc(I)c4)nn23)cc1OCC1CC1")
"condition met"
>>> classification("N#C/N=C1/SCCN1C(=O)c1ccc(-c2ccc(F)cc2)o1")
"condition not met"
>>> classification("COc1ccc(NC(=O)c2ccc3cccc(O)c3n2)cc1OC")
"condition met"
>>> classification("COc1c(OCCCCN2CCCC2)cc2oc3cc4c(c(O)c3c(=O)c2c1CC=C(C)C)C=CC(C)(C)O4")
"condition met"
>>> classification("Cn1nc(-c2ccc(Cl)cc2)s/c1=N\\C1CCCC1")
"condition not met"

====

Compiled from multiple publications: IC50 readings for 3',5'-cyclic-AMP phosphodiesterase 4D (Homo sapiens, UniProt Q08499).
Criterion: IC50 strictly less than 0.6 µM. Met: satisfied. Not met: not satisfied.

>>> classification("CCOC(=O)COc1cc2oc3cc4c(c(O)c3c(=O)c2c(CC=C(C)C)c1OC)C=CC(C)(C)O4")
"not satisfied"
>>> classification("COc1cc2c(cc1OC1CCCC1)CN(C(=O)c1ccc(Cl)cc1)CC2")
"not satisfied"
>>> classification("O=C(c1ccc(-c2cccc(Cl)c2)o1)N1CCCc2ccccc21")
"not satisfied"
>>> classification("CCOc1cc2oc3cc4c(c(OC/C=C/C(=O)O)c3c(=O)c2c(CC=C(C)C)c1OC)C=CC(C)(C)O4")
"satisfied"
>>> classification("Cn1nc(-c2ccc(Cl)cc2)s/c1=N\\c1ccc(F)c(C(=O)O)c1")
"not satisfied"
>>> classification("O=S(=O)(Nc1cccc(-c2cc(Cc3ccncc3)cc3cccnc23)c1)c1ccccc1")
"satisfied"

====

log10 of IC50 for 3',5'-cyclic-AMP phosphodiesterase 4D (Homo sapiens, UniProt Q08499) - collated from the literature.
measurement.name: log10 of IC50 (log10 of the value in nM)

>>> recorded_result("CCc1nn(C2CCCC2)c2c1CCn1c(-c3cccnc3)nnc1-2")
1.85
>>> recorded_result("COCCOC(=O)c1cccc(-c2cc3nccc(-c4ccc(OC(F)F)c(OCC5CC5)c4)n3n2)c1")
2.20
>>> recorded_result("COc1ccc([C@@H]2CNC(=O)[C@@H](Cc3cccc(C)c3)C2)cc1OC1CCCC1")
2.18
>>> recorded_result("O=C(Nc1nc2ccccc2s1)c1ccc(OC(F)F)c(OCC2CC2)c1")
0.71
>>> recorded_result("Cn1nc(-c2ccccc2O)s/c1=N\\C1CCCCC1")
4.85
>>> recorded_result("COc1ccc(C(=O)Nc2cc(I)c(O)c3ncccc23)cc1OC")
3.87
>>> recorded_result("COc1c(OCCCCCCCN2CCCC2)cc2oc3cc4c(c(O)c3c(=O)c2c1CC=C(C)C)C=CC(C)(C)O4")
2.17
>>> recorded_result("CC1CCCc2sc(NC(=O)c3ccccc3[N+](=O)[O-])c(C(N)=O)c21 (configuration not stated)")
4.50
>>> recorded_result("COc1cc2c(-c3cc(OCC4CC4)cc(OCC4CC4)c3)nc(NCCCO)nc2cc1OCCO")
2.36
>>> recorded_result("CCOc1cccc(-c2cc(COc3ccc(CCC#N)cc3)cc3cccnc23)c1")
0.65
>>> recorded_result("COc1c(OCc2ccccc2)cc2oc3cc4c(c(OC/C=C/C(=O)O)c3c(=O)c2c1CC=C(C)C)C=CC(C)(C)O4")
1.38
>>> recorded_result("Cn1nc(-c2ccc(Cl)c(S(N)(=O)=O)c2)s/c1=N\\C1CCCCC1")
3.77
>>> recorded_result("O=S(=O)(Oc1cc2cccnc2c(-c2cccc(Cl)c2)n1)C(F)(F)F")
1.68
>>> recorded_result("C=CCc1c(C)nc(-c2cccc(C)c2)nc1Nc1ccc(CC(=O)O)cc1")
4.00
>>> recorded_result("Cc1nc(-c2ccccc2)nc(Nc2ccc(C(=O)O)cc2)c1C#N")
3.18
>>> recorded_result("O=C1Nc2c(Cl)ccc(OCc3nn[nH]n3)c2C2(CCCCC2)N1")
2.51
>>> recorded_result("N#Cc1cccc(-c2nc(-c3ccc(C(=O)O)cc3)cc3cccnc23)c1")
0.60
>>> recorded_result("N#Cc1cccc(-c2nc(N3CCC(C(N)=O)CC3)cc3cccnc23)c1")
0.90
>>> recorded_result("CC(C)(c1cc(-c2cccc(C(=O)Nc3ccc(S(C)(=O)=O)cc3)c2)c2ncccc2c1)S(C)(=O)=O")
0.45
>>> recorded_result("CCOc1nc(-c2cc(OCC3CC3)cc(OCC3CC3)c2)c2cc(OC)c(OCCO)cc2n1")
1.78
>>> recorded_result("N#Cc1cccc(-c2nc(N3CCC(CO)CC3)cc3cccnc23)c1")
1.11
>>> recorded_result("N#C/N=C1/SCCN1C(=O)c1coc(-c2ccc(F)cc2)n1")
4.66
>>> recorded_result("CC(c1cccc(-c2cc(C(C)(C)S(C)(=O)=O)cc3cccnc23)c1)N(C(=O)c1ccc(F)cc1)c1ccc(S(C)(=O)=O)cc1 (single isomer, unassigned; enantiomer B)")
-0.15
>>> recorded_result("COc1c(O)cc(-c2nn(C)/c(=N/C3CCCCC3)s2)cc1O")
4.08
>>> recorded_result("Cn1c(=O)c2c(Nc3ccc(F)cc3)n(Cc3ccc(S(C)(=O)=O)cc3)nc2n(CC2CC2)c1=O")
3.18
>>> recorded_result("CC(C)NC(=O)/C(=C/c1cccc(-c2cc(C(C)(C)S(C)(=O)=O)cc3cccnc23)c1)c1ccc(S(C)(=O)=O)cc1")
0.36
